Reported Kd by item:
# Assayed target: monoclonal antibody depY (mouse)
# Experiment description: SPR
No end group written: not given here. OP = not defined here
Measured property: Kd (nM)

[[record]]
binder = "LYGLPR-{OP} (reading uncertain; also: printed as LYGLPR-OP) [LYGLPR-OP]"
measured_property = "Kd"
unit_string = "nM"
numeric_value = 12

[[record]]
binder = "PPYRM-{OP} (reading uncertain; also: printed as PPYRM-OP) [PPYRM-OP]"
measured_property = "Kd"
unit_string = "nM"
numeric_value = 360


Values were extracted from paper PMC6006506.
